# Tested on: SW-620
# assay name: NCI tumour cell line growth inhibition, 48 h
The source made the active and inactive calls. Cut-off read from the data, not from the text of the source: active = GI50 up to about 1.1 µM and inactive = higher.
Possible outcomes: 1 = active, -1 = inactive

[[record]]
molecule = "COc1ccc2nc3ccc(OC)cc3c(SCCCl)c2c1"
class = -1

[[record]]
molecule = "COc1cccc2c1NC(=O)Cc1c-2[nH]c2ccccc12"
class = -1

[[record]]
molecule = "CN1C(=N\\S(=O)(=O)c2ccc(Cl)cc2)/C(=N/N=P(c2ccccc2)(c2ccccc2)c2ccccc2)c2ccccc21"
class = -1

[[record]]
molecule = "O=CC(=C(I)I)c1ccccc1"
class = 1

[[record]]
molecule = "O=[N+]([O-])C(C(Cl)=C(Cl)Cl)=C(n1nnc2ccccc21)n1nnc2ccccc21"
class = -1

[[record]]
molecule = "CC1=CC=CC(C)(C)CC1(O[Si](C)(C)C)C(F)(F)F (centres undefined)"
class = -1

[[record]]
molecule = "c1ccc(C(=NNc2cnc3ccccc3n2)c2ccccn2)cc1"
class = 1

[[record]]
molecule = "C[C@]12CC[C@H](O)CC1=CC[C@@H]1C2CC[C@]2(C)C(=O)NC(=O)CC12 (some centres undefined)"
class = -1

[[record]]
molecule = "CCOC(=O)C1C[C@H]2CO[C@H](c3ccccc3)N2C1=O (some centres undefined)"
class = -1

[[record]]
molecule = "COc1cc(C2C3=C(COC3=O)OC(C)(C)Oc3cc4c(cc32)OCO4)cc(OC)c1OC (centres undefined)"
class = 1

[[record]]
molecule = "C=C(c1ccccc1)[C@@]1(O)CCCC[C@H]1NC(c1ccccc1)c1ccccc1"
class = -1

[[record]]
molecule = "COc1cc2c[n+](C)c3c(c2cc1OC)Cc1cc2c(cc1-3)OCO2"
class = -1

[[record]]
molecule = "CN(C)CC1(Cc2ccccc2)CCC(Cc2ccccc2)C1=O (centres undefined)"
class = -1

[[record]]
molecule = "O=C(CSc1nc2ccc([N+](=O)[O-])cc2s1)c1ccc2ccccc2c1"
class = -1


---

# Test system: SF-295
# assay name: NCI tumour cell line growth inhibition, 48 h
Activity calls are given as the source filed them. Rule as the data show it: active = GI50 up to about 1.1 µM and inactive = higher.
Possible outcomes: yes for active, no for inactive

[[record]]
compound = "COc1ccc2cc(C(C)C(=O)N3C(=O)OCC3(C)C)ccc2c1 (stereo unspecified)"
target_desc = "SF-295"
class = "no"

[[record]]
compound = "COc1cc(C(=O)OC2CC34CCNC35CC(OC5(OC)C2O)c2cc3c(cc24)OCO3)ccc1O (stereo unspecified)"
target_desc = "SF-295"
class = "no"

[[record]]
compound = "N#Cc1c(-c2ccccc2)cc(Nc2cccc(C(F)(F)F)c2)n2c1nc1ccccc12"
target_desc = "SF-295"
class = "no"

[[record]]
compound = "Brc1cc2c(cc1C1SCCS1)OCO2"
target_desc = "SF-295"
class = "no"

[[record]]
compound = "COc1ccc(CCNCc2cccc(OC)c2OC)cc1OC"
target_desc = "SF-295"
class = "no"

[[record]]
compound = "CC1CCCP(=O)(c2ccccc2)CC1 (stereo unspecified)"
target_desc = "SF-295"
class = "no"

[[record]]
compound = "NC(Cc1ccc(B(O)O)cc1)C(=O)NC(CO)CO (stereo unspecified)"
target_desc = "SF-295"
class = "no"

[[record]]
compound = "CCN(CC)c1ccc2cc(C(=O)Nc3ccccc3)c(=N)oc2c1"
target_desc = "SF-295"
class = "no"

[[record]]
compound = "CCCCCCC(=O)OC[n+]1ccc(-c2c(COC(=O)NC(C)C)c(COC(=O)NC(C)C)c3n2CCC3)cc1"
target_desc = "SF-295"
class = "no"

[[record]]
compound = "CCC1(C)N=c2c(ncn2N=C(C)C)=C(C(N)=O)N1 (stereo unspecified)"
target_desc = "SF-295"
class = "no"

[[record]]
compound = "[O-]c1c[n+](CC[n+]2cc([O-])on2)no1"
target_desc = "SF-295"
class = "no"

[[record]]
compound = "CC(=O)c1ccc(NC(=O)/C(CC(=O)c2sc(-c3cccnc3)nc2C)=N/NC(N)=O)cc1"
target_desc = "SF-295"
class = "no"

[[record]]
compound = "CC1(C)C(=O)N(CCCCCCN2C(=O)C(C)(C)c3ccccc32)c2ccccc21"
target_desc = "SF-295"
class = "no"

[[record]]
compound = "COc1cc(C2C3=C(COC3=O)OC(C)(C)Oc3cc4c(cc32)OCO4)cc(OC)c1OC (stereo unspecified)"
target_desc = "SF-295"
class = "yes"

[[record]]
compound = "COc1ccc2c3c1OC1C(OC)(OC)C=C[C@@]4(Br)[C@@H](C2)N(CC2CC2)CC[C@]314 (stereo partly specified)"
target_desc = "SF-295"
class = "no"

[[record]]
compound = "NCc1nnn(Cc2ccccc2)c1N"
target_desc = "SF-295"
class = "no"

